pIC50: −log10 of the molar value.
Recorded pIC50 for compounds tested on USP5 (Homo sapiens), drawn from a number of studies.
measured-metric: pIC50

compound | result
CC(C)Cc1nnc2nc3c(nn12)C(=O)c1ccccc1-3 | < 4.00
COc1ccc(CN2CCC(CNC(=O)c3ccc4c(Cl)c5c(nc4c3)CCCC5)CC2)cc1 | < 3.70
O=C(CCC1CCCC1)N1CCC(O)(Cn2cnc3cc(Cl)ccc3c2=O)CC1 | < 3.70
O=C1c2ccccc2-c2nc3nnc(Cc4ccccc4)n3nc21 | 4.46
O=C1c2ccccc2-c2nc3nnc(CO)n3nc21 | 5.60
C=CCON=C1c2ccccc2-c2nn3c(C)nnc3nc21 (mixture of isomers) | 5.94
CCC(CC)C(=O)N1CCC(O)(Cn2cnc3cc(Cl)ccc3c2=O)CC1 | < 3.70
CCc1c(-c2ccc(O)cc2)cnc(N)c1-c1ccc(COC)cc1 | < 3.70
O=C(NCc1ccc(CN2CCCC2)cc1)c1ccc2c(Cl)c3c(nc2c1)CCCC3 | < 3.70

----------
This section presents IC50 values reported for UniProt:P45974 in the literature.

compound | IC50
CN1CCCC1CCNC(=O)c1ccc2c(Cl)c3c(nc2c1)CCCC3 (centres unmarked) | > 200 µM
CC1CCCC(C)N1CCCNC(=O)c1ccc2c(Cl)c3c(nc2c1)CCCC3 (centres unmarked) | > 200 µM
CN1CCN(CCCNC(=O)c2ccc3c(Cl)c4c(nc3c2)CCCC4)CC1 | > 200 µM
C=CCON=C1c2ccccc2-c2nn3c(CCCC)nnc3nc21 (mixture of isomers) | 1.42 µM
O=C(NCC(CN1CCCC1)C(O)c1ccccc1)c1ccc2c(Cl)c3c(nc2c1)CCCC3 (centres unmarked) | > 200 µM

----------
Below are pIC50 measurements against USP5 (Homo sapiens, UniProt P45974) drawn from the literature.
Sequence (P45974 whole entry, species assumed): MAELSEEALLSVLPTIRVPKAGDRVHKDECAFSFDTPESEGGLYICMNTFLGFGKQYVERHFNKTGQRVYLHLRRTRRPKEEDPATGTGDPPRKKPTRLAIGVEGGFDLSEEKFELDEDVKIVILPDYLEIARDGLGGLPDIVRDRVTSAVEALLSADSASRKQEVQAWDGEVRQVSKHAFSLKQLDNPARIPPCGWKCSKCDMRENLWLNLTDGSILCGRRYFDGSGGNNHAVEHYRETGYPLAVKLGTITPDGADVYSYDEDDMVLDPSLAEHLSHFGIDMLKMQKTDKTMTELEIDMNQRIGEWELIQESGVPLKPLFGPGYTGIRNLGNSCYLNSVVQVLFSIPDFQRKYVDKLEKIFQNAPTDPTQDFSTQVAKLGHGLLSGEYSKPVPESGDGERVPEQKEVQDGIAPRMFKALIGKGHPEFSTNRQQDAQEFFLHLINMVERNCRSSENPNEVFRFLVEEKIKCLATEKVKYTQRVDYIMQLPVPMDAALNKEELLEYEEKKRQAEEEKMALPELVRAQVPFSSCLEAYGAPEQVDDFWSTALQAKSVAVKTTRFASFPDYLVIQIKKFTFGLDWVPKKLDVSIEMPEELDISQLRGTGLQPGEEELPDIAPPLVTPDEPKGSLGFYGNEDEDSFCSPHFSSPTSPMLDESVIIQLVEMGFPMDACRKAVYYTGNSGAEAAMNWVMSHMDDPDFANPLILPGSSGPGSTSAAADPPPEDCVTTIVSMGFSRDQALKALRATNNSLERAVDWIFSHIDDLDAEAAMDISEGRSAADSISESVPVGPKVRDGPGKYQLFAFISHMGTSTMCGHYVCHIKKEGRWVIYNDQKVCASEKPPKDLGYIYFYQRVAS
pIC50: −log10 of the molar value.
measured-metric: pIC50

compound | measured-metric | result
CCCN(CCC)CCCNC(=O)c1ccc2c(Cl)c3c(nc2c1)CCCC3 | pIC50 | < 3.70
O=C(CCc1ccccc1)N1CCC(O)(Cn2cnc3ccccc3c2=O)CC1 | pIC50 | < 3.70
Cc1cccc(CN2CCC(CNC(=O)c3ccc4c(Cl)c5c(nc4c3)CCCC5)CC2)c1 | pIC50 | < 3.70
CC(Cc1cccs1)C(=O)N1CCC(O)(Cn2cnc3ccccc3c2=O)CC1 (stereo not shown) | pIC50 | < 3.70
Cc1nnc2nc3c(nn12)C(=O)c1ccccc1-3 | pIC50 | 5.12
CCc1c(-c2ccc3cn(C)nc3c2)cnc(N)c1-c1ccc(O)cc1 | pIC50 | < 3.70
CCCCc1nnc2nc3c(nn12)-c1ccccc1C3=O | pIC50 | 6.63
COc1ccccc1CCC(=O)N1CCC(O)(Cn2cnc3ccccc3c2=O)CC1 | pIC50 | < 3.70
CCCCCCCCCCON=C1c2ccccc2-c2nn3nnnc3nc21 (mixture of isomers) | pIC50 | 4.27
CC1CCCCN1CCCNC(=O)c1ccc2c(Cl)c3c(nc2c1)CCCC3 (stereo not shown) | pIC50 | < 3.70
CN(CCCNC(=O)c1ccc2c(Cl)c3c(nc2c1)CCCC3)Cc1ccccc1 | pIC50 | < 3.70
CCCN(CCC)CCNC(=O)c1ccc2c(Cl)c3c(nc2c1)CCCC3 | pIC50 | < 3.70
O=C(CCc1cccs1)N1CCC(O)(Cn2cnc3ccccc3c2=O)CC1 | pIC50 | < 3.70
O=C1c2ccccc2-c2nc3nn(Cc4ccccc4)nc3nc21 | pIC50 | < 4.00
CCN1CCCC1CNC(=O)c1ccc2c(Cl)c3c(nc2c1)CCCC3 (stereo not shown) | pIC50 | < 3.70
CCCCc1nnc2nc3c(nn12)C(=O)c1ccccc1-3 | pIC50 | 5.41
O=C1c2ccccc2-c2nn3c(C4CC4)nnc3nc21 | pIC50 | 6.50
CN(C)CCNC(=O)c1ccc2c(Cl)c3c(nc2c1)CCCC3 | pIC50 | < 3.70
c1ccc(OCCCON=C2c3ccccc3-c3nn4nnnc4nc32)cc1 (mixture of isomers) | pIC50 | 6.33
